Molecular target: L-type calcium channel (LTCC) (Rattus norvegicus, UniProt P22002)
Construct: differentiated A7r5 cells were trypsinized, then seeded on tissue culture treated 96-well clear-bottom black plates; endogenous in cells; host or cells: A7r5 cells (ATCC), differentiated 8 days with dibutyryl cAMP
Test: FLIPR calcium mobilization assay for L-type calcium channel
Type: cell-based
Conditions: calcium mobilization in vitro assay, differentiated A7r5 cells
Experimental: A7r5 (ATCC) cells were maintained and routinely cultured in A7r5 growth medium consisting of Dulbecco's Modified Eagles Medium containing 10% FBS, 100 U/mL penicillin, 100 μg/mL streptomycin, 4 mM L-glutamine, and 0.15% sodium bicarbonate. […] FLIPR Calcium Mobilization Assay for L-type Calcium Channel. […] The FLIPR measured basal Fluo-4 fluorescence for 15 seconds, then added 0.05 mL of each compound tested diluted in A7r5 assay buffer at final concentrations ranging from about 846 μM to about 17 μM. […]
Measured Property: IC50 (µM)

These recorded examples may help you get a feel for the data.
Could you share which IC50 value was measured for O=C1N(CC=Cc2ccccc2)CCN1CCCC(c1ccc(F)cc1)c1ccc(F)cc1 ?
3.63

Can you share its IC50? I mean this compound: O=C(OCc1ccccc1)N1C(=O)N(CCCC(c2ccc(F)cc2)c2ccc(F)cc2)[C@H]2C[C@H]21
3.29

[P] CN1CCN(CCCC(c2ccc(F)cc2)c2ccc(F)cc2)C1=O
[Q] O=C1N(CCCC(c2ccc(F)cc2)c2ccc(F)cc2)CCN1CCN1CCCC1
Select the item with the higher value of IC50 from the options P and Q listed. # respond with the chosen item's label
Q

----------
Target: L-type calcium channel (LTCC) (Rattus norvegicus)
Construct: differentiated A7r5 cells were trypsinized, then seeded on tissue culture treated 96-well clear-bottom black plates; endogenous in cells
Assay: FLIPR calcium mobilization assay for L-type calcium channel
Conditions: calcium mobilization in vitro assay, differentiated A7r5 cells
Experimental: A7r5 (ATCC) cells were maintained and routinely cultured in A7r5 growth medium consisting of Dulbecco's Modified Eagles Medium containing 10% FBS, 100 U/mL penicillin, 100 μg/mL streptomycin, 4 mM L-glutamine, and 0.15% sodium bicarbonate. […] FLIPR Calcium Mobilization Assay for L-type Calcium Channel. […] The FLIPR measured basal Fluo-4 fluorescence for 15 seconds, then added 0.05 mL of each compound tested diluted in A7r5 assay buffer at final concentrations ranging from about 846 μM to about 17 μM. […]
pIC50: −log10 of the molar value.
Measured Property: pIC50

Look up pIC50 for this compound: O=c1n(CCCC(c2ccc(F)cc2)c2ccc(F)cc2)c2ccccc2n1Cc1ccccn1
5.33

[a] O=C1N(CCCC(c2ccc(F)cc2)c2ccc(F)cc2)CCN1Cc1ccncc1
[b] O=C1N(CCCC(c2ccc(F)cc2)c2ccc(F)cc2)CCN1C1CC1
Short answer wanted: higher pIC50, a or b ? // output: label of the selected item
b
(b: 6.39, a: 5.46)

----------
target: N-type calcium channel (NTCC) (Homo sapiens); construct: endogenous in cells; host or cells: IMR32 cells (ATCC), differentiated 8 days with dibutyryl cAMP and bromodeoxyuridine; assay: FLIPR calcium mobilization assay for N-type calcium channel; format: cell-based; conditions: calcium mobilization in vitro assay, differentiated IMR32 cells
Sequence (Q00975 whole entry): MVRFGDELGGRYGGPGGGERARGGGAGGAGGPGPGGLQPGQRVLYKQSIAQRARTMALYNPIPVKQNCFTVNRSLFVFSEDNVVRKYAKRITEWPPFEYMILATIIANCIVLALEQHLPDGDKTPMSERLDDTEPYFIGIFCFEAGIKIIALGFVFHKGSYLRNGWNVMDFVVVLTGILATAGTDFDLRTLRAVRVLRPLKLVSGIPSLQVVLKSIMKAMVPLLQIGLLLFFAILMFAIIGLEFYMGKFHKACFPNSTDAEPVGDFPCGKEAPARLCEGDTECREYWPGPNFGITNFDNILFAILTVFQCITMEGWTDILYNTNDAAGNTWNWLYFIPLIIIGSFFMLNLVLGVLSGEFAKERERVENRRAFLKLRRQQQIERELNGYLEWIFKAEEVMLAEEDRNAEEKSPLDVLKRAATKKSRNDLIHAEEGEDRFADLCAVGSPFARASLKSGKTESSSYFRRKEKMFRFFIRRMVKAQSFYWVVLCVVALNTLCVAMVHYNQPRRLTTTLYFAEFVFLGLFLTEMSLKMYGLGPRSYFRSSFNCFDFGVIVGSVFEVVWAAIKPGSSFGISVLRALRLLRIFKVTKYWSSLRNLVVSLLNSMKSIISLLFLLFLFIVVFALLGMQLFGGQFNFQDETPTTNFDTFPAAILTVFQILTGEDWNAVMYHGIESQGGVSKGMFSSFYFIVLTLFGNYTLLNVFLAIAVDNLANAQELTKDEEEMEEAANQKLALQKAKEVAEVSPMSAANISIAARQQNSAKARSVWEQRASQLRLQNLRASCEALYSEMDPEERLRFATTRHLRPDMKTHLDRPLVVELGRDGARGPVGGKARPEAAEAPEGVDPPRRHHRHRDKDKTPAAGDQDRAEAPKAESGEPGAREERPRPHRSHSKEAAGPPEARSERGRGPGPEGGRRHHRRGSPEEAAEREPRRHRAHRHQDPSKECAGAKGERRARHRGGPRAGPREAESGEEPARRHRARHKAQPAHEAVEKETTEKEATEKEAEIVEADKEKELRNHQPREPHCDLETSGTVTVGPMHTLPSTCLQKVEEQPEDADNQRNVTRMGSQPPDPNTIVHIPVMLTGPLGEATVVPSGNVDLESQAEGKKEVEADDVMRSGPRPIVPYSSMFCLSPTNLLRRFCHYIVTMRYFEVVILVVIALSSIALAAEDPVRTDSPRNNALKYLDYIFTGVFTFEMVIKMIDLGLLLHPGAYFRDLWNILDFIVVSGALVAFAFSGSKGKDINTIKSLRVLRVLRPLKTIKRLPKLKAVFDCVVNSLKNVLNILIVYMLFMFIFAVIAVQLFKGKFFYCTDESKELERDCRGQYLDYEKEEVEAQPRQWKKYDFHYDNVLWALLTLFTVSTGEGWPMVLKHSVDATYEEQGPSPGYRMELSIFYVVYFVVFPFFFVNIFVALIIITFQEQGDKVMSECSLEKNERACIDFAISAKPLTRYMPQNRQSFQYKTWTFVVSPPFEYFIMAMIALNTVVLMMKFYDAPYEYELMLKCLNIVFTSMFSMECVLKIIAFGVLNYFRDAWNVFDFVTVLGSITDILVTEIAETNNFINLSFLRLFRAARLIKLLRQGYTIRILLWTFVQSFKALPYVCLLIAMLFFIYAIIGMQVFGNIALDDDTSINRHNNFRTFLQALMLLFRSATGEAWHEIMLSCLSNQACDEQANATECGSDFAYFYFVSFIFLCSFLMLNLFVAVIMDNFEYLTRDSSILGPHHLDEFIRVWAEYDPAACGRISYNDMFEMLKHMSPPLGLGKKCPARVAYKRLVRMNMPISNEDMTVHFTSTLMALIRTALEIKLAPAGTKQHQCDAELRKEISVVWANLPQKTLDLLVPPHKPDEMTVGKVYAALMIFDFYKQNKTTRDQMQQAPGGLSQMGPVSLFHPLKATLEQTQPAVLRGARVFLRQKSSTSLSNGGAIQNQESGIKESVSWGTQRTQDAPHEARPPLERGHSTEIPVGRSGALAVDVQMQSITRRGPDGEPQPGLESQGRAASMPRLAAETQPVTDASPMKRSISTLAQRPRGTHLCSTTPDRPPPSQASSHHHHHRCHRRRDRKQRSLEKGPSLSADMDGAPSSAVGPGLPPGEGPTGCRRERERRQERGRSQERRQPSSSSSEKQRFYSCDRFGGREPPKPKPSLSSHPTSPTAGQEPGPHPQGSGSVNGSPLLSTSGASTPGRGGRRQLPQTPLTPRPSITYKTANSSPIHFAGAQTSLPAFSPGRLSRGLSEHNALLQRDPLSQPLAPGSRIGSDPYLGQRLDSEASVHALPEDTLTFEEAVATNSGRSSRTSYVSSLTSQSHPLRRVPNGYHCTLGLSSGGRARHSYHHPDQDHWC
Sequence (P54284 whole entry partner): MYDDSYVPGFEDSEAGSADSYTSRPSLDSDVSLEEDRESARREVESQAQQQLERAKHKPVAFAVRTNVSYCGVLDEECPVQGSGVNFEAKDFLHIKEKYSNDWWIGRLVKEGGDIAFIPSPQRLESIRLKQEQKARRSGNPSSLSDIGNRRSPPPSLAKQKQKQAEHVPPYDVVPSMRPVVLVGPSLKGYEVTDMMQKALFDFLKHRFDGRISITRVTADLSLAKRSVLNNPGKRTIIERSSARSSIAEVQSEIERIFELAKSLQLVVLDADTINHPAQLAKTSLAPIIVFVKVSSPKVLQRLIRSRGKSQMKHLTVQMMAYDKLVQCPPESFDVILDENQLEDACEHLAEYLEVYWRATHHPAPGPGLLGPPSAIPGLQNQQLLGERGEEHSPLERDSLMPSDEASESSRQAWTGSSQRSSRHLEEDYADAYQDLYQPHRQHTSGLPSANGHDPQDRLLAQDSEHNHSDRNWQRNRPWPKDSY
Sequence (P54289 25-956 partner limits assumed): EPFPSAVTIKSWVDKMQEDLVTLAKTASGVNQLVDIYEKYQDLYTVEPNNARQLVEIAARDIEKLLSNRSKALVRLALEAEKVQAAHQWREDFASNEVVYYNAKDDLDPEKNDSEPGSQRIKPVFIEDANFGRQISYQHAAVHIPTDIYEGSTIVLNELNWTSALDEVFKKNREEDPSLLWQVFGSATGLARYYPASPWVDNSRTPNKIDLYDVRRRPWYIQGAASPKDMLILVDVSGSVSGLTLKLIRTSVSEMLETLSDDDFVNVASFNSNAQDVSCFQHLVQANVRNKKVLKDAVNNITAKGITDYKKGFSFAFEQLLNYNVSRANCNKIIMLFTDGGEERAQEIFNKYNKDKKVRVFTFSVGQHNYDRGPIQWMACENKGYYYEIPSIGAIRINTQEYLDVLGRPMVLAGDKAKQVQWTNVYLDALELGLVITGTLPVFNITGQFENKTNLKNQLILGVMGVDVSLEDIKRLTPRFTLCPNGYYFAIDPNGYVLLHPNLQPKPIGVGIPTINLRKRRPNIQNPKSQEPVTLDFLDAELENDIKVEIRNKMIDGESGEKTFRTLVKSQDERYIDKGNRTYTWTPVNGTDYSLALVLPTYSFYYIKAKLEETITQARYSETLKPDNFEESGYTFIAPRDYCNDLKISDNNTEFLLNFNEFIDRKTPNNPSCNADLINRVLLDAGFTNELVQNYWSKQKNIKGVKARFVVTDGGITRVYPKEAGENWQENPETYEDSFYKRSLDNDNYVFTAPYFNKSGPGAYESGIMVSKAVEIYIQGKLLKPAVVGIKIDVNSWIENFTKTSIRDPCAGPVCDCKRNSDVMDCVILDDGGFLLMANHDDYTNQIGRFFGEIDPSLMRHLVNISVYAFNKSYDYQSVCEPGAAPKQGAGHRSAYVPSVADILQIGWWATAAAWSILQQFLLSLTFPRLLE
Sequence (P54289 957-1103 partner limits assumed): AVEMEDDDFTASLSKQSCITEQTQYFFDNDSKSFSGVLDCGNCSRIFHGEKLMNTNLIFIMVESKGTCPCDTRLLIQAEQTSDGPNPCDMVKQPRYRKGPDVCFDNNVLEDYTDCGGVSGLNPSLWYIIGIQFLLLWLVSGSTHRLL
pIC50: −log10 of the molar value.
Measured Property: pIC50

[I] O=C1NCCN1CCCC(c1ccc(F)cc1)c1ccc(F)cc1
[II] O=C(OCc1ccccc1)N1C(=O)N(CCCC(c2ccc(F)cc2)c2ccc(F)cc2)[C@H]2C[C@H]21
[III] O=C1N(CCCC(c2ccc(F)cc2)c2ccc(F)cc2)CCN1CCN1CCCC1
[IV] O=c1n(CCCC(c2ccc(F)cc2)c2ccc(F)cc2)c2ccccc2n1CCN1CCCCC1
Kindly sort the 4 compounds above from the smallest to the largest pIC50. Return the labels ranked in the requested order, please.
I, IV, III, II
